This collection of values is drawn from paper PMC5333415.

# assayName: Pharmacokinetics study in vivo, single oral dose
# details: male, Sprague-Dawley, rat, plasma, po, 40 mg/kg, rats, oral gavage, scutellarin dose 40 mg/kg, n = 6, mean ± SD, read-out: T1/2(β) (converted)
measuredParameter: half-life (h)
Answer format: numeric, h implied, no suffix.

Ask: Identify measured half-life corresponding to O=C(O)[C@H]1O[C@@H](Oc2cc3oc(-c4ccc(O)cc4)cc(=O)c3c(O)c2O)[C@H](O)[C@@H](O)[C@@H]1O [Scu, 4′,5,6-trihydroxyflavone-7-O-glucuronide]
Result: 1.88

----------
# assayName: Pharmacokinetics study in vivo, single oral dose
# details: male, Sprague-Dawley, rat; rats, oral gavage, scutellarin dose 40 mg/kg, plasma scutellarin, n = 6, mean ± SD
measuredParameter: Cmax (ng/mL)
Answer format: numeric, ng/mL implied, no suffix.

Ask: Identify measured Cmax corresponding to O=C(O)[C@H]1O[C@@H](Oc2cc3oc(-c4ccc(O)cc4)cc(=O)c3c(O)c2O)[C@H](O)[C@@H](O)[C@@H]1O [Scu, 4′,5,6-trihydroxyflavone-7-O-glucuronide]
Result: 129

----------
# assayName: Pharmacokinetics study in vivo, single oral dose
# details: male, Sprague-Dawley, rat; rats, oral gavage, scutellarin dose 40 mg/kg, plasma scutellarin, n = 6, mean ± SD
measuredParameter: Tmax

Ask: Identify measured Tmax corresponding to O=C(O)[C@H]1O[C@@H](Oc2cc3oc(-c4ccc(O)cc4)cc(=O)c3c(O)c2O)[C@H](O)[C@@H](O)[C@@H]1O [Scu, 4′,5,6-trihydroxyflavone-7-O-glucuronide]
Result: 1.24 h
